The values you see were collected from patent US20240309103A1.

Listed binders paired with reported koff
Target: T1, mfNPR1-mFc (monkey)
T1 construct: also called dimeric monkey NPR1
T1 chain: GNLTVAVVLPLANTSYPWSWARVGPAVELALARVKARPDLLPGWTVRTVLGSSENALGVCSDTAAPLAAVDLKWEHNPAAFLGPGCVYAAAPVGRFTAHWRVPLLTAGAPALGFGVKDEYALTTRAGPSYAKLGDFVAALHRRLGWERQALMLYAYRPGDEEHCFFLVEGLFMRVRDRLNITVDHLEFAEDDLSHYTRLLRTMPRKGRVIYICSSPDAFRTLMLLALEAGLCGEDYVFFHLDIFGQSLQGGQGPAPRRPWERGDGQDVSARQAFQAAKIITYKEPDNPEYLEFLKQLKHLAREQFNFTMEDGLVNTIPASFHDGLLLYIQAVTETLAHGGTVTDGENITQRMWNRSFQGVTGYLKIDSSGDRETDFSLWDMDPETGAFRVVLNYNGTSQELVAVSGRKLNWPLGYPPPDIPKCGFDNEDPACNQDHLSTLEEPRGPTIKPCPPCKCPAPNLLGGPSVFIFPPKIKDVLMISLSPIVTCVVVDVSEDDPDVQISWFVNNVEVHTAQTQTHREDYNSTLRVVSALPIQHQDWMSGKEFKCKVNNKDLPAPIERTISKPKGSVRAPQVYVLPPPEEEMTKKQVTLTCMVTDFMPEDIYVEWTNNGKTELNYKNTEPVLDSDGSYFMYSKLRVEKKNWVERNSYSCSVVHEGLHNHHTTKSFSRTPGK
Test: SPR, mAb captured, 25C
Expressed in s⁻¹, but write only the number.

Recorded results for 2 binders are shown here.
mAb25497 (antibody, human IgG4, V domains shown) VH: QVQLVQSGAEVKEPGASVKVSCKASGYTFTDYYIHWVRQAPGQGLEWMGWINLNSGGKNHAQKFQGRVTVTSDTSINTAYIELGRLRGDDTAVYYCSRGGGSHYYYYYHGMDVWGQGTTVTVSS VL: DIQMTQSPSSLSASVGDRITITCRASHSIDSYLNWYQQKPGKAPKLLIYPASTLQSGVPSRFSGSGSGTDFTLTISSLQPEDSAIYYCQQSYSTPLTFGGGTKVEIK | 5.79e-05
mAb22033 (antibody, human IgG4, V domains shown) VH: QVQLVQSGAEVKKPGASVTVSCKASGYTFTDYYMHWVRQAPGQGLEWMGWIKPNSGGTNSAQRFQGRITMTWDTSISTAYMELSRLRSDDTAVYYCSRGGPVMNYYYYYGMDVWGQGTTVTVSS VL: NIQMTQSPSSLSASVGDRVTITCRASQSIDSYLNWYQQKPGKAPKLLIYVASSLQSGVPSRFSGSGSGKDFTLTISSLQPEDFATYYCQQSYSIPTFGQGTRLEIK | 4.85e-05

Here is another binder to look at.
Query: // koff lookup, key: mAb25502 (antibody, human IgG4, V domains shown) VH: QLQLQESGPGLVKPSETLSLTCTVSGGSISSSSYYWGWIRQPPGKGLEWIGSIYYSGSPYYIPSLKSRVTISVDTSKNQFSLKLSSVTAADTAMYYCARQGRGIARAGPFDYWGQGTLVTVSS VL: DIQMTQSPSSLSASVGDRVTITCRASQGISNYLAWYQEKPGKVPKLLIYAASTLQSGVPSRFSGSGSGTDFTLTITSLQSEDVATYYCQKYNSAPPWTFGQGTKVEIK
Result: 0.000141
